# measuredTarget: CMV polymerase (Human cytomegalovirus, UniProt P08546)
# Construct: made in house; host or cells: recombinant baculovirus-infected SF-9 cells
# Sequence (P08546 whole entry): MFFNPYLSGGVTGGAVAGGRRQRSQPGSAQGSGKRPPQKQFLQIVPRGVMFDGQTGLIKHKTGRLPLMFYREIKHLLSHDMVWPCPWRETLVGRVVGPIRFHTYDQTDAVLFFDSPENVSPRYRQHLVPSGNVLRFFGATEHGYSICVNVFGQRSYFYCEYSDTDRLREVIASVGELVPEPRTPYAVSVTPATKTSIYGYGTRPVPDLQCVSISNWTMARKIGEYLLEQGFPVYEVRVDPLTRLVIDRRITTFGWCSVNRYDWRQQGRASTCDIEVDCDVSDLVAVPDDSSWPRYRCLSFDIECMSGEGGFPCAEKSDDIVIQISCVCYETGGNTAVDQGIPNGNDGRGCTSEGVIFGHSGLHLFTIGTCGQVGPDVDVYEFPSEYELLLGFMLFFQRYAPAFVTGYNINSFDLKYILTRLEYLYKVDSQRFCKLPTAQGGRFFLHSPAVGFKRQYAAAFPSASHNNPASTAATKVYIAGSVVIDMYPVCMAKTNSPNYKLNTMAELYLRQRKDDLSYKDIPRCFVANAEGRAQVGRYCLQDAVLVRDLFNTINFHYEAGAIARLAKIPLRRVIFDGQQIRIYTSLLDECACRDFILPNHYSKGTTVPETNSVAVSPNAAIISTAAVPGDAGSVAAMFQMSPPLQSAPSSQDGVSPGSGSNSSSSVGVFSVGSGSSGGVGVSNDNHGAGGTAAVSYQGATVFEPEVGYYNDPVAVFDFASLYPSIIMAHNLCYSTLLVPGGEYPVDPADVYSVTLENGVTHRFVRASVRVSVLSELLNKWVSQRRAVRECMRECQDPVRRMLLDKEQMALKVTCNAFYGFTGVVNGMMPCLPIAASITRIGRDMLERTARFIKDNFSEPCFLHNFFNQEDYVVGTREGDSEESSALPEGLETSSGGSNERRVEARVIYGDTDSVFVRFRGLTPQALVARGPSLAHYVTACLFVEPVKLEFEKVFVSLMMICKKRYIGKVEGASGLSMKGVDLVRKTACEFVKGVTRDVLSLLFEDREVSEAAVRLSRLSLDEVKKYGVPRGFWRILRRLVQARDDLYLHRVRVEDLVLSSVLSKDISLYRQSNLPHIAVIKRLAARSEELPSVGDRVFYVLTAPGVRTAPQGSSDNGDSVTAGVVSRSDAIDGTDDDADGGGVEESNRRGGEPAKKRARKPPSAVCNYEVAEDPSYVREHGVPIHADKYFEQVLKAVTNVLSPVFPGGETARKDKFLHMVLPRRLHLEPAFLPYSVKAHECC
# testDetails: modified version of the HCMV polymerase assay (100% DMSO dilution, DTT, different enzyme lot)
# Assay type: biochemical
# assaySetup: Concentration 6.25 uM; Table 3
measurementKind: inhibition at 6.25 µM (%)

{"sampleSmiles": "Cc1ccc2c(Cl)cc(S(=O)(=O)NCCOc3ccccc3)c(O)c2n1", "measurementUnits": "%", "quantitativeResult": 41}
{"sampleSmiles": "Cc1ccc2c(Cl)cc(S(=O)(=O)NC(c3ccccc3)c3ccccc3)c(O)c2n1", "measurementUnits": "%", "quantitativeResult": 36}
{"sampleSmiles": "Cc1ccc2c(Cl)cc(S(=O)(=O)NCCCc3ccccc3)c(O)c2n1", "measurementUnits": "%", "quantitativeResult": 21}
{"sampleSmiles": "Cc1ccc2c(Cl)cc(S(=O)(=O)N[C@@H](C)c3ccccc3)c(O)c2n1", "measurementUnits": "%", "quantitativeResult": 36}
{"sampleSmiles": "Cc1ccc2c(Cl)cc(S(=O)(=O)N[C@H](C)c3ccccc3)c(O)c2n1", "measurementUnits": "%", "quantitativeResult": 28}
{"sampleSmiles": "Cc1ccc2c(Cl)cc(S(=O)(=O)NCCCn3ccnc3)c(O)c2n1", "measurementUnits": "%", "quantitativeResult": 3}
{"sampleSmiles": "Cc1ccc2c(Cl)cc(S(=O)(=O)NCCCN3CCOCC3)c(O)c2n1", "measurementUnits": "%", "quantitativeResult": -3}

----------
# measuredTarget: HCMV polymerase (Human cytomegalovirus)
# Construct: made in house; host or cells: recombinant baculovirus-infected SF-9 cells
# Sequence (P08546 whole entry): as above
# testDetails: HCMV polymerase assay (scintillation proximity assay)
# Format: biochemical
# assaySetup: Table 14; read-out: IC50
Measured IC50 values are reported for all entries that follow.
measurementKind: IC50 (µM)

{"molecule": "N#CC(NC(=O)c1ccc2cccnc2c1O)c1ccccc1 (stereo not drawn)", "measurementKind": "IC50", "quantitativeResult": 54}
{"molecule": "O=C(N[C@H]1CC[C@H](OC(=O)c2ccc3cccnc3c2O)CC1)c1ccc2cccnc2c1O", "measurementKind": "IC50", "quantitativeResult": 4}
{"molecule": "O=C(NCc1ccc2c(c1)OCO2)c1ccc2cccnc2c1O", "measurementKind": "IC50", "quantitativeResult": 26}
{"molecule": "O=C(c1ccc2cccnc2c1O)N1CCN(c2ccc(Cl)c(Cl)c2)CC1", "measurementKind": "IC50", "quantitativeResult": 14}
{"molecule": "O=C(NCCc1ccccc1Cl)c1ccc2cccnc2c1O", "measurementKind": "IC50", "quantitativeResult": 26}
{"molecule": "CCOC(=O)C(Cc1ccccc1)NC(=O)c1ccc2cccnc2c1O (stereo not drawn)", "measurementKind": "IC50", "quantitativeResult": 41}

----------
Measured inhibition at 12.5 µM values are reported for all entries that follow.
# measuredTarget: CMV polymerase (Human cytomegalovirus)
# Construct: made in house; host or cells: recombinant baculovirus-infected SF-9 cells
# testDetails: modified version of the HCMV polymerase assay (100% DMSO dilution, DTT, different enzyme lot)
# Format: biochemical
# assaySetup: Concentration 12.5 uM; Table 3

{"sampleSmiles": "Cc1ccc2c(Cl)cc(S(=O)(=O)N[C@H](C)c3ccccc3)c(O)c2n1", "measurementUnits": "%", "inhibition at 12.5 µM": 43}
{"sampleSmiles": "Cc1ccc2c(Cl)cc(S(=O)(=O)N[C@@H](C)c3ccccc3)c(O)c2n1", "measurementUnits": "%", "inhibition at 12.5 µM": 47}
{"sampleSmiles": "Cc1ccc2c(Cl)cc(S(=O)(=O)NCCCN3CCOCC3)c(O)c2n1", "measurementUnits": "%", "inhibition at 12.5 µM": 6}
{"sampleSmiles": "Cc1ccc2c(Cl)cc(S(=O)(=O)NCCOc3ccccc3)c(O)c2n1", "measurementUnits": "%", "inhibition at 12.5 µM": 44}
{"sampleSmiles": "Cc1ccc2c(Cl)cc(S(=O)(=O)NC(c3ccccc3)c3ccccc3)c(O)c2n1", "measurementUnits": "%", "inhibition at 12.5 µM": 58}
{"sampleSmiles": "Cc1ccc2c(Cl)cc(S(=O)(=O)NCCCn3ccnc3)c(O)c2n1", "measurementUnits": "%", "inhibition at 12.5 µM": 12}
{"sampleSmiles": "Cc1ccc2c(Cl)cc(S(=O)(=O)NCCCc3ccccc3)c(O)c2n1", "measurementUnits": "%", "inhibition at 12.5 µM": 57}

Where these numbers come from: patent US6500842B1
